Recorded inhibition at 10 µM for the following compounds
- SUBJECT_OF_TEST: cannabinoid receptor 1 (CB1R) (Mus musculus, UniProt P47746)
- Construct: gene Cnr1; native receptor in mouse brain membranes
- Sequence (P47746 whole entry): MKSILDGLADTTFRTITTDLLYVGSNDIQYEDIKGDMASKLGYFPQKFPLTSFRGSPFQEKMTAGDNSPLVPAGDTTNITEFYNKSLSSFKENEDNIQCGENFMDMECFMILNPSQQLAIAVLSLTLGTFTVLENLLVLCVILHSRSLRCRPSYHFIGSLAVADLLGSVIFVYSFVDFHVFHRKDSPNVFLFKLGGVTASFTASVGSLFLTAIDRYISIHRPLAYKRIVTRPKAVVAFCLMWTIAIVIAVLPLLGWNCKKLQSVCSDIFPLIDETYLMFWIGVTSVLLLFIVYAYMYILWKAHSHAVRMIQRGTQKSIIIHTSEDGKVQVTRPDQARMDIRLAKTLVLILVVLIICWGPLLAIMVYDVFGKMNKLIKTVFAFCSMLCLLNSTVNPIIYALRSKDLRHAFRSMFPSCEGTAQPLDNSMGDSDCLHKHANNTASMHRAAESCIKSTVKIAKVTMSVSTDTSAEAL
- TEST_NAME: [3H]CP55, […] competition radioligand binding, mouse brain membranes, […] (weak)
- CONDITION: read-out: % displacement at 10 μM
METRIC: inhibition at 10 µM

> print(dat)
                                   compound  reported.value
1  COC(=O)N(C)c1c(N)nc(-c2nn(Cc3ccccc3F)c3ncccc23)nc1N [Riociguat]            ~20%
2  CCCCC(=O)N(Cc1ccc(-c2ccccc2-c2nnn[nH]2)cc1)[C@H](C(=O)O)C(C)C [Valsartan]            ~30%
3  Nc1nc(N)c2nc(CNc3ccc(C(=O)N[C@@H](CCC(=O)O)C(=O)O)cc3)cnc2n1 [APGA, Aminopterin]            ~30%
4  COc1ccc(CN=c2[nH]c(N3CCC[C@H]3CO)ncc2C(=O)NCc2ncccn2)cc1Cl [Avanafil]            ~30%

Source: paper PMC10747202
